Where do the numbers come from? From ChEMBL document CHEMBL1649420.

# Study System: Tyrosinase (Agaricus bisporus);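 further: inhibition measured at 10 min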
# Recorded Conditions: at 1 mM
Property Name: inhibition (%)

Smiles Notation	Property Name	Unit Symbol	Value Observed
Nc1[nH]cnc2ncnc1-2	inhibition	%	11
Cc1cc(C)nc(S)n1	inhibition	%	99
O=c1ccc2ccccc2[nH]1	inhibition	%	5
O=C(O)c1cc(O)ccc1O	inhibition	%	96
O=C(O)c1cccnc1C(=O)O	inhibition	%	98
c1ccc(CNCc2ccccn2)nc1	inhibition	%	69
Cc1cccc(C(=O)O)n1	inhibition	%	25
Cc1cc(O)nc(O)n1	inhibition	%	-4
O=c1cc[nH]c(=S)[nH]1	inhibition	%	36
O=C(O)c1ccc(F)cc1O	inhibition	%	97
CCCCc1ccc(C(=O)O)nc1	inhibition	%	75
C1CNCCNCCN1	inhibition	%	68
O=C(O)c1ccc(O)c(O)c1	inhibition	%	50
Oc1ccccc1-c1nc2ccccc2o1	inhibition	%	3
CCn1ccc(=S)c(O)c1C	inhibition	%	100
Oc1nccc(S)n1	inhibition	%	44

###

# Study System: UniProt:P08254
# Sequence (P08254 100-477 limits assumed): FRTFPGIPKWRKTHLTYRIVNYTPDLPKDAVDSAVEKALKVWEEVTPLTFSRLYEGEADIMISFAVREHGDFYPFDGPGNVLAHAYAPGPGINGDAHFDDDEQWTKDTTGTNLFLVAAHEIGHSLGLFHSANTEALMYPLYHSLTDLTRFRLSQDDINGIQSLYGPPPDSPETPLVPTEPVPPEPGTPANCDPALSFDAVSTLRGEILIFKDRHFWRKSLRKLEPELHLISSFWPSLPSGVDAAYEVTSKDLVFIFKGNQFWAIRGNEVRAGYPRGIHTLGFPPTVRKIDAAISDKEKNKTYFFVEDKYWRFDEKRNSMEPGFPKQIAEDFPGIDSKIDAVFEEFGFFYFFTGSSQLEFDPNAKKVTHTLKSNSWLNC
# Recorded Conditions: at 1 mM

Molecule	inhibition [%]
O=c1ccc2ccccc2[nH]1	3
CC(C)c1cccc(=O)c(O)c1	98
O=c1occcc1O	72
CCn1ccc(=S)c(O)c1C	99
O=C(O)c1nc(Cl)ccc1Cl	0
CCc1occc(=O)c1O	38
CCn1ccc(=O)c(O)c1C	-8
O=C(O)c1cccc(=O)n1O	86
c1ccc(CNCc2ccccn2)nc1	93
c1cnc2c(c1)ccc1cccnc12	91
O=C(O)c1ccc[nH]1	-8
O=C(O)c1ccc(O)c(O)c1	0
O=c1cc(CCl)occ1O	68
CC(C)c1cccc(C(=O)O)c1O	5
Cc1cc(C)nc(S)n1	70
Cc1nc(O)cc(O)n1	22
O=C(O)c1c(O)cccc1O	-4
Cc1cc(=O)c(O)co1	29
O=C(O)c1cc(O)ccc1O [GENTISIC ACID]	-3
Oc1ccccc1-c1nc2ccccc2s1	4
Cc1ccc(C(=O)O)c(O)c1	-1
Cc1cc(O)nc(O)n1	7
Nc1cccc2cccnc12	56
O=C(O)c1cccc(C(=O)O)n1	54
CC(=O)C(Cl)C(C)=O	-6
O=C(O)c1cc(F)ccc1O	-2
Oc1cc(O)nc(S)n1	38
Cc1cccc(C(=O)O)n1	48
CS(=O)(=O)Nc1cccc2cccnc12	64
Oc1ccc2ccccc2c1O	89
CCC(C(C)=O)C(C)=O	6
O=c1ccocc1O	35
CCc1c(O)c(=O)ccn1C	20
Cc1cc(=O)c(O)c(CCl)o1	59
Cc1ccc(C(=O)O)c(C(=O)O)n1	28
O=C(O)c1cccc(O)c1O	-1
Cc1ccc(O)c(C(=O)O)c1	76
O=C1C=C(O)C(=O)c2ccccc21	84
O=C(O)c1nccc2ccccc12	67
Oc1ccc(Cl)c2cccnc12	45
O=C(O)c1ncccc1O	56

###

# Study System: Neutrophil collagenase (Homo sapiens);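 further: recombinant human MMP8 enzyme, percent inhibition read after 30 min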
# Recorded Conditions: at 1 mM

Molecule	inhibition (%)
Cc1cc(=O)c(O)co1	31
Nc1ccc2cccc(O)c2n1	91
CC(C)c1cccc(=O)c(O)c1	100
CC(=O)NO [ACETOHYDROXAMIC ACID]	5
O=c1cc(CO)occ1O	51
NC(=O)c1ccccc1O	24
O=C(O)c1cccc2cccnc12	38
Cc1occ(O)c(=O)c1C(=O)O	55
O=c1cc(CCl)occ1O	59
Cc1ccc(C(=O)O)c(C(=O)O)n1	11
Nc1ccc(C(=O)O)c(O)c1	8
O=c1occcc1O	68
Cc1nc(O)cc(O)n1	14
[O-][n+]1ccccc1S	90
CCn1ccc(=S)c(O)c1C	93
Cc1cc(=O)c(O)c(CCl)o1	47
CCc1c(O)c(=O)ccn1CC	31
